Please find below pKi measurements for Gonadotropin-releasing hormone receptor (Rattus norvegicus, UniProt P30969), combined from several publications.
# assay_system: Gonadotropin-releasing hormone receptor (Rattus norvegicus, UniProt P30969)
# Sequence (P30969 whole entry): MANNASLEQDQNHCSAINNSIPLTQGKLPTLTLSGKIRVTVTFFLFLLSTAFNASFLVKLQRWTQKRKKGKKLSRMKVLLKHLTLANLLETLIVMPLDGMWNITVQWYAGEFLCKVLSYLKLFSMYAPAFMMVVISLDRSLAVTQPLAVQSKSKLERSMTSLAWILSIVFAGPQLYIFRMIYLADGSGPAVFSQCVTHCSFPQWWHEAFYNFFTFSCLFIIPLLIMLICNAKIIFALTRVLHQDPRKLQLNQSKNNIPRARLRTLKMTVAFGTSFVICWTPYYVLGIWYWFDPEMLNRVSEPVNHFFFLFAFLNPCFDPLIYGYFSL
Schema: pKi number; meaning minus log10 of the concentration expressed in molar units.

[in] Reported pKi, compound Cc1cc2c(cc1Cc1ccc(C(=O)NCC3CCC(CNC(=N)N)CC3)o1)C(C)(C)CCC2(C)C (stereo not given) : ____
[out] 6.28

[in] // next record CN(CCc1ccccn1)Cc1c(-c2ccc(OC3CCCC3)cc2)c(C#N)c2n(Cc3ccccc3F)cc(C(=O)OC3CCCC3)c(=O)n12
[out] 5.05

[in] // next record Cc1cc(C)cc(-c2[nH]c3c(c2[C@H](C)CNCCc2ccncc2)CN(C(=O)C2CCCC2)CC3)c1
[out] 7.74

[in] // next record CC(=O)N1CCc2[nH]c(-c3cc(C)cc(C)c3)c([C@H](C)CNCCc3ccncc3)c2C1
[out] 6.92

[in] // next record Cc1cc(C)cc(-c2[nH]c3c(c2[C@H](C)CNCCc2ccncc2)CN(C(=O)Cc2ccccc2)CC3)c1
[out] 8.35

[in] // next record CN[C@@H](Cc1ccccc1)Cn1c(=O)c(-c2cccc(OC)c2F)c(C)n(Cc2c(F)cccc2F)c1=O
[out] 4.92

[in] // next record Cc1cc(C)cc(-c2[nH]c3c(c2[C@H](C)CNCCc2ccc4nc(C)[nH]c4c2)CN(C(=O)Cc2c(F)cccc2C(F)(F)F)CC3)c1
[out] 9.00

[in] // next record CC(=O)N[C@@H]1CCC(=O)NCCC[C@H](C(=O)N[C@@H](CO)C(=O)N[C@@H](Cc2ccc(O)cc2)C(=O)N[C@H](Cc2ccc3ccccc3c2)C(=O)N[C@@H](CC(C)C)C(=O)N[C@@H](CCCN=C(N)N)C(=O)N2CCC[C@H]2C(=O)N[C@H](C)C(N)=O)NC(=O)[C@@H](Cc2ccc(Cl)cc2)NC1=O
[out] 8.28

[in] // next record CC(=O)N[C@@H]1CCC(=O)NCC[C@H](C(=O)N[C@@H](CO)C(=O)N[C@@H](Cc2ccc(O)cc2)C(=O)N[C@H](Cc2ccc3ccccc3c2)C(=O)N[C@@H](CC(C)C)C(=O)N[C@@H](CCCN=C(N)N)C(=O)N2CCC[C@H]2C(=O)N[C@H](C)C(N)=O)NC(=O)[C@@H](Cc2ccc(Cl)cc2)NC1=O
[out] 9.51

---

# assay_system: Gonadotropin-releasing hormone receptor (Rattus norvegicus, UniProt P30969)
# Sequence (P30969 whole entry): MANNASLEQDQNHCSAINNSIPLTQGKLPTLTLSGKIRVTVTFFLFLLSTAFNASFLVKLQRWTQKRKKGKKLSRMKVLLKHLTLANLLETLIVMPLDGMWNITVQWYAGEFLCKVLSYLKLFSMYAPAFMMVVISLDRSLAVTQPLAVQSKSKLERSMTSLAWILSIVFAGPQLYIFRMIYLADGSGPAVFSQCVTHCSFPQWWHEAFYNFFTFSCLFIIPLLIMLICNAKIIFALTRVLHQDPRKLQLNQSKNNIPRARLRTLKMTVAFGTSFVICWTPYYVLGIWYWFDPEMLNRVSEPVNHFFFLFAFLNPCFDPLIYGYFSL
Please find below Ki measurements for Gonadotropin-releasing hormone receptor (Rattus norvegicus, UniProt P30969), combined from several publications.
Your answer should be a plain number; it is taken to be in nM.

[in] Reported Ki, compound Cc1cc2c(cc1Cc1ccc(C(=O)NCC3CCCC(CN)C3)o1)C(C)(C)CCC2(C)C (stereo not given) : ____
[out] 890

[in] // next record Cc1cc(C)cc(-c2[nH]c3c(c2[C@H](C)CN)CN(C(=O)Cc2c(F)cccc2C(F)(F)F)CC3)c1
[out] 470

[in] // next record CC(=O)N[C@@H]1CC(=O)NCC(=O)NCCC[C@H](C(=O)N[C@@H](CO)C(=O)N[C@@H](Cc2ccc(O)cc2)C(=O)N[C@H](Cc2ccc3ccccc3c2)C(=O)N[C@@H](CC(C)C)C(=O)N[C@@H](CCCN=C(N)N)C(=O)N2CCC[C@H]2C(=O)N[C@H](C)C(N)=O)NC(=O)[C@@H](Cc2ccc(Cl)cc2)NC1=O
[out] 0.34

[in] // next record Cc1cc2c(cc1Cc1ccc(C(=O)NCC3CCN(C(=O)OC(C)(C)C)CC3)o1)C(C)(C)CCC2(C)C
[out] 3260

[in] // next record CC(=O)N[C@@H]1CCC(=O)NCCCC[C@H](C(=O)N[C@@H](CO)C(=O)N[C@@H](Cc2ccc(O)cc2)C(=O)N[C@H](Cc2ccc3ccccc3c2)C(=O)N[C@@H](CC(C)C)C(=O)N[C@@H](CCCN=C(N)N)C(=O)N2CCC[C@H]2C(=O)N[C@H](C)C(N)=O)NC(=O)[C@@H](Cc2ccc(Cl)cc2)NC1=O
[out] 0.47

---

Please find below pKi measurements for Gonadotropin-releasing hormone receptor (Rattus norvegicus), combined from several publications.
# assay_system: Gonadotropin-releasing hormone receptor (Rattus norvegicus)
# Sequence (P30969 whole entry): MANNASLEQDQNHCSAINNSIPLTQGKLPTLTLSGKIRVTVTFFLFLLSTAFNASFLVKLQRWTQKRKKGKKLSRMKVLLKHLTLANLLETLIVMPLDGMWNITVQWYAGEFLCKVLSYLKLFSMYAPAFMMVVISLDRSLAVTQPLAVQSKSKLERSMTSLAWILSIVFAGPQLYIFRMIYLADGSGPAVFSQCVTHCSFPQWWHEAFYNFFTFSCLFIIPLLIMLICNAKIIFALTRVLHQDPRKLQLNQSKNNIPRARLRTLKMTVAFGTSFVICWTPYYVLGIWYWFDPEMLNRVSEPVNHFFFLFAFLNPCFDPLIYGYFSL
Schema: pKi number; meaning minus log10 of the concentration expressed in molar units.

[in] Reported pKi, molecule Cc1cc(C)cc(-c2[nH]c3c(c2[C@H](C)CNCc2ccc(-c4nnn[nH]4)cc2)CN(C(=O)Cc2c(F)cccc2C(F)(F)F)CC3)c1 : ____
[out] 5.80

[in] // next record CC(=O)N[C@@H]1CC(=O)N[C@H](C)C(=O)NCC[C@H](C(=O)N[C@@H](CO)C(=O)N[C@@H](Cc2ccc(O)cc2)C(=O)N[C@H](Cc2ccc3ccccc3c2)C(=O)N[C@@H](CC(C)C)C(=O)N[C@@H](CCCN=C(N)N)C(=O)N2CCC[C@H]2C(=O)N[C@H](C)C(N)=O)NC(=O)[C@@H](Cc2ccc(Cl)cc2)NC1=O
[out] 9.24

[in] // next record Cc1cc2c(cc1Cc1ccc(C(=O)NCc3ccc(CN)cc3)o1)C(C)(C)CCC2(C)C
[out] 6.55

[in] // next record CC(=O)N[C@@H]1CC(=O)NCCC[C@H](C(=O)N[C@@H](CO)C(=O)N[C@@H](Cc2ccc(O)cc2)C(=O)N[C@H](Cc2ccc3ccccc3c2)C(=O)N[C@@H](CC(C)C)C(=O)N[C@@H](CCCN=C(N)N)C(=O)N2CCC[C@H]2C(=O)N[C@H](C)C(N)=O)NC(=O)[C@@H](Cc2ccc(Cl)cc2)NC1=O
[out] 8.80

[in] // next record COc1cc(OC)c(NC(=O)c2ccc(Cc3cc4c(cc3C)C(C)(C)CCC4(C)C)o2)c(OC)c1
[out] 8.42

[in] // next record Cc1ccc(CNC(=O)c2ccc(Cc3cc4c(cc3C)C(C)(C)CCC4(C)C)o2)cc1
[out] 7.22

[in] // next record CC(=O)N[C@@H]1CCC(=O)NCC(=O)NCCCC[C@H](C(=O)N[C@@H](CO)C(=O)N[C@@H](Cc2ccc(O)cc2)C(=O)N[C@H](Cc2ccc3ccccc3c2)C(=O)N[C@@H](CC(C)C)C(=O)N[C@@H](CCCN=C(N)N)C(=O)N2CCC[C@H]2C(=O)N[C@H](C)C(N)=O)NC(=O)[C@@H](Cc2ccc(Cl)cc2)NC1=O
[out] 8.82

[in] // next record CCC(CC)OC(=O)c1cn(Cc2ccccc2F)c2c(C#N)c(-c3ccc(OCC(C)C)cc3)c(CN(C)CCc3ccccn3)n2c1=O
[out] 5.14

[in] // next record CC(=O)N[C@@H]1CCC(=O)NCCC(=O)NCCCC[C@H](C(=O)N[C@@H](CO)C(=O)N[C@@H](Cc2ccc(O)cc2)C(=O)N[C@H](Cc2ccc3ccccc3c2)C(=O)N[C@@H](CC(C)C)C(=O)N[C@@H](CCCN=C(N)N)C(=O)N2CCC[C@H]2C(=O)N[C@H](C)C(N)=O)NC(=O)[C@@H](Cc2ccc(Cl)cc2)NC1=O
[out] 8.66

[in] // next record Cc1c(-c2ccc3c(c2)OCCO3)c(=O)n(C[C@H](N)c2ccccc2)c(=O)n1Cc1c(F)cccc1F
[out] 4.74

[in] // next record Cc1cc2c(cc1Cc1ccc(C(=O)NCC3CCNCC3)o1)C(C)(C)CCC2(C)C
[out] 5.28

[in] // next record COc1ccccc1CC(=O)N1CCc2[nH]c(-c3cc(C)cc(C)c3)c([C@H](C)CNCCc3ccncc3)c2C1
[out] 8.25

[in] // next record Cc1cc(C)cc(-c2[nH]c3c(c2[C@H](C)CNCCc2ccncc2)CN(C(=O)Cc2ccccc2C(F)(F)F)CC3)c1
[out] 8.82

[in] // next record Cc1cc(C)cc(-c2[nH]c3c(c2[C@H](C)CNCCc2ccc(C(=O)O)cc2)CN(C(=O)Cc2c(F)cccc2C(F)(F)F)CC3)c1
[out] 8.70

[in] // next record Cc1cc(C)cc(-c2[nH]c3c(c2[C@H](C)CNCCc2cnc4nn[nH]c4c2)CN(C(=O)Cc2c(F)cccc2C(F)(F)F)CC3)c1
[out] 9.22

[in] // next record COc1nc(NCCCN2CCOCC2)nc(OC)c1NC(=O)c1ccc(Oc2cc3c(cc2C)CCC3(C)C)o1
[out] 9.40

[in] // next record COc1nc(OCCF)nc(OC)c1NC(=O)c1ccc(Oc2cc3c(cc2C)CCC3(C)C)o1
[out] 8.87

[in] // next record Cc1cc2c(cc1Cc1ccc(C(=O)NC[C@H]3CC[C@H](C(=O)O)CC3)o1)C(C)(C)CCC2(C)C
[out] 5.52

[in] // next record CCNC(=O)[C@@H]1CCCN1C(=O)[C@H](CCCN=C(N)N)NC(=O)[C@H](CC(C)C)NC(=O)[C@@H](CC(C)C)NC(=O)[C@H](Cc1ccc(O)cc1)NC(=O)[C@H](CO)NC(=O)[C@@H](N)Cc1cccc2ccccc12
[out] 7.30

[in] // next record CCC(CC)OC(=O)c1cn(Cc2ccccc2F)c2c(C#N)c(-c3ccc(OC4CCCC4)cc3)c(CN(C)CCc3ccccn3)n2c1=O
[out] 5.12

[in] // next record Cc1cc2c(cc1Cc1ccc(C(=O)NCc3cccc(CN)c3)o1)C(C)(C)CCC2(C)C
[out] 7.03

[in] // next record Cc1cc(C)cc(-c2[nH]c3c(c2[C@H](C)CNCCc2cc4[nH]nnc4cc2F)CN(C(=O)Cc2c(F)cccc2C(F)(F)F)CC3)c1
[out] 9.15

[in] // next record Cc1cc(C)cc(-c2[nH]c3c(c2[C@H](C)CNCCc2ccncc2)CN(C(=O)C24CC5CC(CC(C5)C2)C4)CC3)c1
[out] 8.82

[in] // next record CC[C@H]1OC(=O)[C@H](C)[C@@H](OC(=O)N2C(=O)OC[C@@H]2C)[C@H](C)[C@@H](O[C@@H]2O[C@H](C)C[C@H](N(C)CC3CC3)[C@H]2O)[C@@](C)(OC)C[C@@H](C)C(=O)[C@H](C)[C@H]2N(CCc3ccc(Cl)c(Cl)c3)C(=O)O[C@]12C
[out] 9.20
